The entries below come with measured pEC50 values attached.
biological target: ligand binding domain of human FXR (Homo sapiens (Human)); assay: FXR ligand binding assay (LanthaScreen TR-FRET, SRC2-2 peptide recruitment); details: -log EC50, concentration required to produce 50% activation
Sequence (Q96RI1 262-486): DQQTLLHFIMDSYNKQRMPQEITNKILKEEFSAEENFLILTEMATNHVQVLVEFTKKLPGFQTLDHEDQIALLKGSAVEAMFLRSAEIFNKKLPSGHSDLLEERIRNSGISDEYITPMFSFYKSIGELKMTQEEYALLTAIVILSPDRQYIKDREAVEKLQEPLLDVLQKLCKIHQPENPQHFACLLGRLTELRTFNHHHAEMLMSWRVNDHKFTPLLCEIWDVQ
Just the number.

Here's what some known entries look like.
- MOLECULE: "O=C(O)c1cc(C2CCOCC2)c2nc(N3C[C@@H]4C[C@H]3C[C@H]4OCc3c(C4CCC5(CC4)CC5)noc3C3CC3)sc2c1"
  REPORTED_RESULT: 7.2
- MOLECULE: "CCCS(=O)(=O)NC(=O)c1ccc(N2C[C@@H]3C[C@H]2C[C@H]3OCc2c(-c3c(Cl)cccc3Cl)noc2C2(F)CC2)c(F)c1"
  REPORTED_RESULT: 8.5
- MOLECULE: "O=C(O)c1cc(C2CC2)c2nc(N3C(=O)[C@@H]4C[C@H]3C[C@H]4OCc3c(-c4c(Cl)cccc4Cl)noc3C3CC3)sc2c1"
  REPORTED_RESULT: 8.2
- MOLECULE: "O=C(O)C1CN(Cc2ccc(N3C[C@@H]4C[C@H]3C[C@H]4OCc3c(-c4c(Cl)cccc4Cl)noc3C3CC3)cc2)C1"
  REPORTED_RESULT: 6.9
- MOLECULE: "Cc1cccc(Cl)c1-c1noc(C2CC2)c1CO[C@@H]1C[C@@H]2C[C@H]1CN2c1nc2c(OC3CC3)cc(C(=O)O)cc2s1"
  REPORTED_RESULT: 8.7

Next item in the queue.
## Input I'd like to know its pEC50. The molecule in question is O=C(NS(=O)(=O)CCC(O)CO)c1ccc(N2C[C@@H]3C[C@H]2C[C@H]3OCc2c(-c3c(Cl)cccc3Cl)noc2C2CC2)cc1 (stereo partly drawn)
## Output 8.6
